Assignment: determine reported LD50 for the given compounds.
- System: Oncopeltus fasciatus
- Test: Insecticidal activity against Oncopeltus fasciatus fourth-instar larvae assessed as insect mortality measured after 72 hr post compound application
- Type: functional
The response must be a number in µg with no trailing unit.

Q: Provide only the value of recorded LD50 for CC(=O)[C@@H]1COC(O)[C@@H]1C (single isomer, unassigned; (-)) [(-)-BOTRYODIPLODIN]
A: 5.55

Q: Provide only the value of recorded LD50 for CC(=O)O[C@@H]1OC[C@@H](C(C)=O)[C@H]1C (relative stereo) [Botryodiplodin acetate]
A: 12.19
